- Assayed System: HSA (Homo sapiens)
- Construct: purchased HiMedia (Mumbai, India)
- Sequence (P02768 25-609): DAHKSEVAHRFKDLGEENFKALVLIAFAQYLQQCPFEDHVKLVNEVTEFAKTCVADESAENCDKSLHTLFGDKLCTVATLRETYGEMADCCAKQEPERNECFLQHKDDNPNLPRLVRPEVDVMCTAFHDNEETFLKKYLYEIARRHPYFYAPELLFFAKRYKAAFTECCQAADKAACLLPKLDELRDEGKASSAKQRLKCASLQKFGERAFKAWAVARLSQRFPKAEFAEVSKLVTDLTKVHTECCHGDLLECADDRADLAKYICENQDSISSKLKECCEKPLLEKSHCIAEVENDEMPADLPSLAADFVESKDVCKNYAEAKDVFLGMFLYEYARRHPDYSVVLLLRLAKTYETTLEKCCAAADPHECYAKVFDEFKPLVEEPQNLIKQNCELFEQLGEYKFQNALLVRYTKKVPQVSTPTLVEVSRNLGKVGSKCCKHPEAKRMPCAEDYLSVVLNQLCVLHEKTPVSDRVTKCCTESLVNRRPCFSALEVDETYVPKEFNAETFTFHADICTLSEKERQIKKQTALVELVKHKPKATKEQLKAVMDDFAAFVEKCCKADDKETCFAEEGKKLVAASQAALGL
- Assay Details: HSA tryptophan fluorescence quenching
- Assay type: binding
- Condition Context: compounds 10–100 μM, HSA 10 μM
Recorded Endpoint: decrease of HSA fluorescence intensity (%)

molecule="CNC1=N[N+]2=C(C)c3[c](c4ccc(OC)cc4oc3=O)[Ru-4]2([C]#[O+])([P+](c2ccccc2)(c2ccccc2)c2ccccc2)([P+](c2ccccc2)(c2ccccc2)c2ccccc2)[S]1 [Complex 2, [Ru(7MAC-mtsc)(CO)(PPh3)2]]" recorded_measurement=50.56
molecule="CCNC1=N[N+]2=C(C)c3[c](c4ccc(OC)cc4oc3=O)[Ru-4]2([C]#[O+])([P+](c2ccccc2)(c2ccccc2)c2ccccc2)([P+](c2ccccc2)(c2ccccc2)c2ccccc2)[S]1 [Complex 3, [Ru(7MAC-etsc)(CO)(PPh3)2]]" recorded_measurement=53.45
molecule="COc1ccc2[c]3c(c(=O)oc2c1)C(C)=[N+]1N=C(N)[S][Ru-4]31([C]#[O+])([P+](c1ccccc1)(c1ccccc1)c1ccccc1)[P+](c1ccccc1)(c1ccccc1)c1ccccc1 [Complex 1, [Ru(7MAC-tsc)(CO)(PPh3)2]]" recorded_measurement=41.01
molecule="COc1ccc2[c]3c(c(=O)oc2c1)C(C)=[N+]1N=C(Nc2ccccc2)[S][Ru-4]31([C]#[O+])([P+](c1ccccc1)(c1ccccc1)c1ccccc1)[P+](c1ccccc1)(c1ccccc1)c1ccccc1 [Complex 4, [Ru(7MAC-ptsc)(CO)(PPh3)2]]" recorded_measurement=39.80

###

- Tested on: S. aureus
- Assay Details: In vitro antibacterial assay (zone of inhibition, MIC)
- Assay type: cell-based, Staphylococcus aureus
- Condition Context: S. aureus, 50 µg/ml
Recorded Endpoint: Zone of inhibition (mm)

molecule="COc1ccc2[c]3c(c(=O)oc2c1)C(C)=[N+]1N=C(N)[S][Ru-4]31([C]#[O+])([P+](c1ccccc1)(c1ccccc1)c1ccccc1)[P+](c1ccccc1)(c1ccccc1)c1ccccc1 [Complex 1, [Ru(7MAC-tsc)(CO)(PPh3)2]]" recorded_endpoint="Zone of inhibition" recorded_measurement=12.16
molecule="[C-]#[O+].[Cl][RuH].c1ccc(P(c2ccccc2)c2ccccc2)cc1.c1ccc(P(c2ccccc2)c2ccccc2)cc1.c1ccc(P(c2ccccc2)c2ccccc2)cc1 [[RuHClCO(PPh3)3], reference compound]" recorded_endpoint="Zone of inhibition" recorded_measurement=15.19
molecule="CNC1=N[N+]2=C(C)c3[c](c4ccc(OC)cc4oc3=O)[Ru-4]2([C]#[O+])([P+](c2ccccc2)(c2ccccc2)c2ccccc2)([P+](c2ccccc2)(c2ccccc2)c2ccccc2)[S]1 [Complex 2, [Ru(7MAC-mtsc)(CO)(PPh3)2]]" recorded_endpoint="Zone of inhibition" recorded_measurement=13.12
molecule="COc1ccc2[c]3c(c(=O)oc2c1)C(C)=[N+]1N=C(Nc2ccccc2)[S][Ru-4]31([C]#[O+])([P+](c1ccccc1)(c1ccccc1)c1ccccc1)[P+](c1ccccc1)(c1ccccc1)c1ccccc1 [Complex 4, [Ru(7MAC-ptsc)(CO)(PPh3)2]]" recorded_endpoint="Zone of inhibition" recorded_measurement=12.21
molecule="CCNC1=N[N+]2=C(C)c3[c](c4ccc(OC)cc4oc3=O)[Ru-4]2([C]#[O+])([P+](c2ccccc2)(c2ccccc2)c2ccccc2)([P+](c2ccccc2)(c2ccccc2)c2ccccc2)[S]1 [Complex 3, [Ru(7MAC-etsc)(CO)(PPh3)2]]" recorded_endpoint="Zone of inhibition" recorded_measurement=12.04
